# Protocol details: in vitro
# Condition details: human, hela cells, % viability
viability at 28.5 h, 10 µM by entry:
Report the figure along with its unit, number first.

// below: answered compounds
CCN1C(=O)N(CC)C2C1NC(=O)N2CCCC(=O)O (stereo not drawn) [CBK287131]    89.3%
O=C(c1ccncc1)n1nc(NCc2ccccc2)nc1NCc1ccccc1 [CBK269069]    89.5%
CCOc1ccc2cc(C3CC(c4ccc(C)cc4)=NN3C(=O)CCC(=O)O)c(Cl)nc2c1 (stereo not drawn) [CBK297508]    87.2%
O=C1COc2ccccc2CCCCC2(CCCN(C(=O)CCN3CCCC3=O)C2)CN1 (stereo not drawn) [CBK291998]    103%
CN1CCC(O)(Cn2cnc3cc(-c4ccc(F)cc4)sc3c2=O)CC1 [CBK307434]    101%

input: Need viability at 28.5 h, 10 µM, item Cc1ccc(S(=O)(=O)NCCCN2CCOCC2)c(C)c1C [CBK264990]
output: 89.7%

input: Cc1c(Cl)c(C(F)(F)F)nn1CCCNC(=S)Nc1ccc(S(N)(=O)=O)cc1 [CBK267113] , same question.
output: 100%

input: O=C(CN1CCC(NC(=O)c2cccs2)CC1)NCc1ccccc1F [CBK304901] , same question.
output: 97.2%

input: CCC(NC(=O)CCc1cccnc1)c1cn2cccnc2n1 (stereo not drawn) [CBK307247] , same question.
output: 81.7%

input: N#CCCc1ccc(Oc2ncc(C(F)(F)F)cc2Cl)cc1 [CBK161635] , same question.
output: 106%

input: Cc1cc(C)nc(SCC(=O)Nc2cccc(C(=O)O)c2)n1 [CBK263214] , same question.
output: 101%

input: Cc1ccc(SCc2nc3ncccn3c2Br)cc1 [CBK027744] , same question.
output: 85.2%

* * *

# Protocol details: in vitro
# Condition details: human, hela cells, % viability
viability at 28.5 h, 10 µM by entry:
Give a bare numeral; the unit % is implied.

// below: answered molecules
C=CCOc1cccn2c(N(C=O)Cc3ccccc3)c(CC)nc12 [CBK147827]    92.2
CNCC1CCCN(C(=O)c2ccc(Oc3cccnc3)cc2)C1 (stereo not drawn) [CBK304479]    83.2
CCCn1nc(C)c(-c2cncn2CC(C)N2CCC(C)CC2)c1C (stereo not drawn) [CBK281791]    85.2

input: Need viability at 28.5 h, 10 µM, item CC(C)NC(=O)[C@H]1O[C@H](CCN2CCN(c3ccc(F)cc3)CC2)CC[C@@H]1O [CBK288721]
output: 98.8

input: CCN(CC)C(=O)c1cccc(NC(=O)Cc2cn3ccsc3n2)c1 [CBK305353] , same question.
output: 85.6

input: Cc1c(CN2CCC(CO)C2)cnn1Cc1ccccc1 (stereo not drawn) [CBK282113] , same question.
output: 99.5

input: CC1CN(Cc2ccccc2)CCN1c1cnccn1 (stereo not drawn) [CBK013684] , same question.
output: 102

input: CCc1nc(N)nc(N2CCC3(CCC(CNC(C)=O)O3)CC2)c1C (stereo not drawn) [CBK307168] , same question.
output: 100

input: O=C(Cc1nnn[nH]1)N1CCC(Cn2cncn2)(C2CCCCC2)CC1 [CBK136796] , same question.
output: 92.2

Each recorded value in this set is attributed to paper PMC12040169.
